Cited source: patent US6458796B1

# assay-system: c-GMP-stimulated PDE II (UniProt P14099)
# run-description: Inhibition of the phosphodiesterases in vitro: PDE II
# test-settings: 3HcAMP substrate, 10^-6 mol/l cGMP added
Hi! Just check whether IC50 is below 100 nM. Below gives Yes, equal or above gives No.

Query :: Given the entry COc1ccc(Cc2nc3c(nnn3C(C)CCCc3ccccc3)c(=O)[nH]2)cc1OC (centres unmarked) , would its reported IC50 be below 100 nM?
Result :: Yes

Query :: Given the entry COc1ccc(Cc2nc3c(nnn3C(CCCc3ccccc3)C(C)O)c(=O)[nH]2)cc1OC (centres unmarked) , would its reported IC50 be below 100 nM?
Result :: Yes

Query :: Given the entry CNS(=O)(=O)c1ccc(Cc2nc3c(nnn3C(C)CCCc3ccccc3)c(=O)[nH]2)cc1 (centres unmarked) , would its reported IC50 be below 100 nM?
Result :: No

Query :: Given the entry CC(O)C(CCCc1ccccc1)n1nnc2c(=O)[nH]c(Cc3ccc4c(c3)OCO4)nc21 (centres unmarked) , would its reported IC50 be below 100 nM?
Result :: No
